Target: T1, human IL-23 (IL-23-His-Biotin, Akesobio, 20161209) (human, UniProt Q9NPF7 20-189; P29460 23-328)
T1 construct: His-tagged and biotinylated; also called human IL23-His-Biotin
T1 sequence (looked up) 1: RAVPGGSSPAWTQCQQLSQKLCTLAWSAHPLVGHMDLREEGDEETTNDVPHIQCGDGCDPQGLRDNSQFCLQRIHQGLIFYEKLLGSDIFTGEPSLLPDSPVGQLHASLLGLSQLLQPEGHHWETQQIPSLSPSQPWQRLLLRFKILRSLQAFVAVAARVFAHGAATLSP
T1 sequence (looked up) 2: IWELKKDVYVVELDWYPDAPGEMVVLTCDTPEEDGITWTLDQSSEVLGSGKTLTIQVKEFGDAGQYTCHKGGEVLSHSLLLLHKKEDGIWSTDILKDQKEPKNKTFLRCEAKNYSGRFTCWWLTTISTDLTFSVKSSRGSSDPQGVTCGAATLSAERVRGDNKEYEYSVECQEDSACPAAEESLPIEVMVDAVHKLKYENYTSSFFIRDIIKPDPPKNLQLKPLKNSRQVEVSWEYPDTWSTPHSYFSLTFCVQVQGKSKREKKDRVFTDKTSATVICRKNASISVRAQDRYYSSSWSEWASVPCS
Assay: FACS competition, IL-23-His-Biotin 2 µg/mL on 293T-IL-12RB1&IL-23R cells, antibody 1.11 µg/mL

BINDER | MFI
H5L12 (antibody, human IgG1, kappa, V domains shown, IgG1/kappa) VH: EVQLVQSGAEVKKPGESLKISCQSSGYSFTTYWIGWVRQMPGQGLEWIGIMSPVDSDIRYNPMFRGQVTMSVDKSSSTAYLQWSSLKASDTAMYYCARRRPGQGYFDFWGQGTMVTVSS VL: EIVLTQSPATLSASPGERATISCRASQSVSSWLAWYQQKPGQAPRSLIYAASNRQSGIPARFSGSGSGTDFTLTISSLEPEDFAVYYCQQYNIYPYTFGQGTRLEIKR | 88.5
H5L14 (antibody, human IgG1, kappa, V domains shown, IgG1/kappa) VH: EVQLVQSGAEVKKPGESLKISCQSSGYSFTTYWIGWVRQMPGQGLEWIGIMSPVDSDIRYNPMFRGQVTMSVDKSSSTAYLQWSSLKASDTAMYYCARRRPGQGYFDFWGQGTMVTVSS VL: EIVLTQSPATLSASPGERATISCRASQSVSSWLAWYQQKPGQAPRSLIYAASNLQSGIPARFSGSGSGTDFTLTISSLEPEDFAVYYCQQYNIYPFTFGQGTRLEIKR | 95.6
H5L10 (antibody, human IgG1, kappa, V domains shown, IgG1/kappa) VH: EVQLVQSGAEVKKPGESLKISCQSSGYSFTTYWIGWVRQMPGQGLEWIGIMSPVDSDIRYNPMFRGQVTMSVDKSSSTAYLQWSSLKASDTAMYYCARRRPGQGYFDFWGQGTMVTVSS VL: EIVLTQSPATLSASPGERATISCRASQSVGSWLAWYQQKPGQAPRSLIYAASNLQSGIPARFSGSGSGTDFTLTISSLEPEDFAVYYCQQYNIYPYTFGQGTRLEIKR | 81.6
H5L9 (antibody, human IgG1, kappa, V domains shown, Humanized anti-human IL-12/IL-23 p40 antibody; IgG1 (P01857) / kappa (P01834) constant regions) VH: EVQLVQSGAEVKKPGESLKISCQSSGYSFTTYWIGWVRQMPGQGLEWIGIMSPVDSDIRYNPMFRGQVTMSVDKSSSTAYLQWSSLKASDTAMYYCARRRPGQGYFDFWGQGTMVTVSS VL: DIQMTQSPSSLSASVGDRVTITCKASQNVGSWLAWYQQKPGKAPKSLIYSASSRQSGVPSRFSGSGSGTDFTLTISSLQPEDFATYYCQQYDIYPFTFGQGTKLEIKR | 184
